assay: Induction of anti-CD3 antibodies-stimulated human T cell activation at 1 uM assessed fold increase in IL-2 secretion measured by ELISA assay; type: functional, T cell line; further: reference of the scale not given here
quantity.kind: fold change (FC)

Q. Name the recorded fold change (FC) for `Cc1n[nH]c(C)c1-c1cc2c(c(C(F)(F)F)c1)CN(c1cccc([C@H](C)Cc3nncn3C)c1)C2=O` .
A. >=0.201

Q. Name the recorded fold change (FC) for `CN1CC2CCC(C1)N2c1cc2c(c(C(F)(F)F)c1)CN(c1cccc(C3(Cc4nncn4C)COC3)c1)C2=O` .
A. >=0.201

###

experiment: Induction of anti-CD3/CD28 antibodies-stimulated human T cell activation at 1 uM assessed fold increase in IL-2 secretion measured by ELISA assay; assay type: functional, T cell line
quantity.kind: fold change (FC)

Q. Name the recorded fold change (FC) for `C[C@H](Cc1nncn1C)c1ccnc(N2Cc3c(cccc3C(F)(F)F)C2=O)c1` .
A. <=1

Q. Name the recorded fold change (FC) for `Cn1cnnc1[C@@H]1C[C@@H]1c1cccc(N2Cc3c(cc(CN4CC[C@H](F)C4)cc3C(F)(F)F)C2=O)c1` .
A. >=7.5

Q. Name the recorded fold change (FC) for `Cn1cnnc1CC1(c2cccc(NC(=O)c3cc(C4CC4)nc(C4CC4)n3)c2)COC1` .
A. >=7.5
